Every entry's value here was drawn from the METLIN SMRT retention time set (Domingo-Almenara et al. 2019).

TEST_DETAILS: gradient 5% acetonitrile 3 min, to 50% in 2 min, to 85% in 15 min, held 3 min, 100 µL/min
COND: column: Zorbax Extend-C18 2.1 x 50 mm; eluents: water / acetonitrile, 0.1% formic acid
QUANTITY: RP-LC retention time (s)

Examples with their reported RP-LC retention time follow.
MOLECULE	RP-LC retention time [s]
COc1cccc(CNc2nccc(-n3nc(C)cc3C)n2)c1	808
CCS(=O)(=O)N(C1CC1)C1CCOC2(CCN(C(=O)C3CC3)CC2)C1 (stereo unspecified)	710
CS(=O)(=O)N1CCCC(C(=O)NC2CCCCC2)CCNC(=O)CC1 (stereo unspecified)	633
O=C(CCc1ccccc1)Nc1cnn(-c2ncncc2N2CCCC2)c1	702

(P) COc1ccc(NC(=O)CCc2c(C)nn(-c3cc(N(C)C)ncn3)c2C)cc1
(Q) Cc1ccc(-c2nc(-c3cccc(-c4ccnn4C)c3)no2)cc1C
Which of the two gives a bigger number for RP-LC retention time: P or Q ? Please reply using the label of the selected record.
Q
(Q: 1300 s, P: 733 s)

====

TEST_DETAILS: gradient 5% acetonitrile 3 min, to 50% in 2 min, to 85% in 15 min, held 3 min, 100 µL/min
COND: column: Zorbax Extend-C18 2.1 x 50 mm; eluents: water / acetonitrile, 0.1% formic acid
QUANTITY: RP-LC retention time (s)

Consider the worked cases shown below.
COMPOUND	RP-LC retention time [s]
CC(C)c1noc(C2(NC(=O)c3cnccn3)CCCCC2)n1	894
CCN1C(=O)c2ccccc2Oc2ccc(C(=O)NCCc3ccc(Cl)cc3)cc21	998
CC(C)n1cc(S(=O)(=O)N2CCN(c3ccccc3)CC2)c2cccnc21	1070
COCCn1ncc(N2CCC(C(=O)Nc3ccc(F)cc3F)C2)cc1=O (stereo unspecified)	666

(1) CCCc1cc(N2CCN(C(=O)c3ccccc3)CC2)nc2nncn12
(2) Cc1oc2ccn(Cc3ccc(F)cc3)c(=O)c2c1C(=O)NCc1cc(F)ccc1F
Pick one, 1 or 2 : lowest reported RP-LC retention time. Lab note: record the label of whichever item you select.
1
(1: 608 s, 2: 1130 s)

====

TEST_DETAILS: gradient 5% acetonitrile 3 min, to 50% in 2 min, to 85% in 15 min, held 3 min, 100 µL/min
COND: column: Zorbax Extend-C18 2.1 x 50 mm; eluents: water / acetonitrile, 0.1% formic acid
QUANTITY: RP-LC retention time (s)

Worked examples follow.
COMPOUND	QUANTITY	READOUT_UNITS	TEST_RESULT
Cn1c(=O)n(CC(=O)N2CCOCC2)c(=O)c2cnc(-c3ccccc3)nc21	RP-LC retention time	s	767
CCOc1ccc(NC(=O)NC(C)C(=O)N2CCc3ccccc32)cc1 (stereo not drawn)	RP-LC retention time	s	855

(1) O=C(NCc1csc(C2CCN(C(=O)c3ccc(Cl)cc3)CC2)n1)C1CCC1
(2) COc1ccc(C)cc1NS(=O)(=O)c1cc(-c2cc(C(F)(F)F)on2)sc1C
Param metric = RP-LC retention time; output whichever of 1 , 2 has the minimum value. Please identify the chosen entry by its label.
1
(1: 761 s, 2: 1210 s)

(a) O=C(NCCc1ccccc1)N1CCC(c2noc(-c3cnccn3)n2)C1 (stereo not drawn)
(b) Cc1sc(NC(=O)Cc2csc(-c3ccccc3)n2)nc1-c1ccc(F)cc1
Lab note: check whether a or b has the lower measured RP-LC retention time. Your choice should be expressed through its label.
a

(a) CN(CC1CCOC1)C(=O)Nc1ccccc1C(F)(F)F (stereo not drawn)
(b) NC(=O)c1cc(-c2ccccc2)sc1NC(=O)c1cc(Cl)sc1Cl
Lowest RP-LC retention time? choose a or b # reply format: chosen label
a

(A) CCC1(O)CCOC2(CCN(C(=O)CC3CC3)CC2)C1 (stereo not drawn)
(B) Cc1nn(CC(=O)NC2CCCCCC2)c(=O)c2nc(-c3ccccc3)sc12
Between A and B , which one has the lower reported RP-LC retention time value? Indicate your choice by writing its label.
A
